// reported DC50 for each item listed
System under test: GSPT1 (Homo sapiens, UniProt P15170+Q96SW2)
Construct: CAL-51 cells were purchased from DSMZ (cat. Number ACC302); host or cells: CAL-51
Sequence (P15170 whole entry, one chain of several): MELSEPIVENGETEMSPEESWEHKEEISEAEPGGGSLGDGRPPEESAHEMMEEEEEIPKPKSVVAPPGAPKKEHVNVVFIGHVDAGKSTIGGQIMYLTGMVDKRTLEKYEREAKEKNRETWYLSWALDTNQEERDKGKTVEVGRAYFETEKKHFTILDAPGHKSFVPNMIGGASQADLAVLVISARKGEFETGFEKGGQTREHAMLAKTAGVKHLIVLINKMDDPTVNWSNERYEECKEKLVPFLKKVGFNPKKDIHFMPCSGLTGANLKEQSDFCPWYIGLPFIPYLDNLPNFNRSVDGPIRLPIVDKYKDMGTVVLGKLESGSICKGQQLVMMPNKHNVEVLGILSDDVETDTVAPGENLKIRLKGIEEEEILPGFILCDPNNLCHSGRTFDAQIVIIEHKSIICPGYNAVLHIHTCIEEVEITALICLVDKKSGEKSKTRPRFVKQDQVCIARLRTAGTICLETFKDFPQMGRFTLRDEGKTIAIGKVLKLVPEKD
Protocol text: Immunofluorescence assay for activity to degrade GSPT1 in CAL-51 cells
Format: cell-based
Condition context: 6 h treatment, read-out: IF Class (GSPT1 degradation, DC50)

| Compound | DC50 |
| --- | --- |
| O=C1CCC(c2c(F)cc(N3CC(OC(=O)Nc4cnc(-c5ccccc5)nc4)C3)cc2F)C(=O)N1 (stereo not drawn) | ≤ 0.03 µM |
| Cc1cc(C#N)cc(NC(=O)OC2CN(c3cc(F)c(C4CCC(=O)NC4=O)c(F)c3)C2)c1 (stereo not drawn) | 0.03 to 0.3 µM |
| O=C1CCC(c2c(F)cc(N3CC(OC(=O)NCC4CC(F)(F)C4)C3)cc2F)C(=O)N1 (stereo not drawn) | 0.03 to 0.3 µM |
| COc1cc(C)c(Cl)cc1NC(=O)NC1CN(c2ccc(C3CCC(=O)NC3=O)cc2)C1 (stereo not drawn) | 0.03 to 0.3 µM |

Consider the compound shown here: CC1(C)CC(NC(=O)OC2CN(c3cc(F)c(C4CCC(=O)NC4=O)c(F)c3)C2)C1 (stereo not drawn) What is its recorded DC50?
≤ 0.03 µM

What would you report for O=C1CCC(c2c(F)cc(N3CC(OC(=O)NC45CC(c6ccccc6)(C4)C5)C3)cc2F)C(=O)N1 (stereo not drawn) ?
≤ 0.03 µM

Another: Cc1cc(C)cc(NC(=O)NC2CN(c3ccc(C4CCC(=O)NC4=O)c(Cl)c3)C2)c1 (stereo not drawn)
> 0.3 µM

And what about the compound Cc1ccc(NC(=O)NC2CN(c3ccc(C4CCC(=O)NC4=O)c(F)c3)C2)cc1Cl (stereo not drawn) ?
0.03 to 0.3 µM

###

System under test: GSPT1 (Homo sapiens, UniProt P15170+Q96SW2)
Construct: CAL-51 cells were purchased from DSMZ (cat. Number ACC302); host or cells: CAL-51
Protocol text: Immunofluorescence assay for activity to degrade GSPT1 in CAL-51 cells
Assay type: cell-based
Condition context: 6 h treatment, read-out: IF Class (GSPT1 degradation, DC50)
DC50 for assorted molecules

Worked cases, answers included:
| Molecule | Property name | Observed value |
| --- | --- | --- |
| O=C1CCC(c2c(F)cc(N3CC(OC(=O)NC45CCC(CC4)CC5)C3)cc2F)C(=O)N1 (stereo not shown) | DC50 | ≤ 30 nM |
| O=C1CCC(c2c(F)cc(N3CC(OC(=O)NC4CC(F)(F)C4)C3)cc2F)C(=O)N1 (stereo not shown) | DC50 | > 300 nM |
| O=C1CCC(c2ccc(N3CC(OC(=O)Nc4cccc(OC(F)(F)F)c4)C3)cc2Cl)C(=O)N1 (stereo not shown) | DC50 | 30 to 300 nM |

Now let's try a different one.
// returns reported DC50 for input COc1ccc(C(F)(F)C23CC(NC(=O)OC4CN(c5cc(F)c(C6CCC(=O)NC6=O)c(F)c5)C4)(C2)C3)cc1 (stereo not shown)
≤ 30 nM

###

System under test: GSPT1 (Homo sapiens, UniProt P15170+Q96SW2)
Construct: CAL-51 cells were purchased from DSMZ (cat. Number ACC302); host or cells: CAL-51
Protocol text: Immunofluorescence assay for activity to degrade GSPT1 in CAL-51 cells
Assay type: cell-based
Condition context: 6 h treatment, read-out: IF Class (GSPT1 degradation, DC50)
Property name: DC50

| Compound | Observed value |
| --- | --- |
| Cc1cc(C)cc(NC(=O)NC2CN(c3ccc(C4CCC(=O)NC4=O)cc3)C2)c1 (stereo not shown) | 30 to 300 nM |
| O=C1CCC(c2c(F)cc(N3CC(NC(=O)N[C@@H]4CCC(F)(F)C4)C3)cc2F)C(=O)N1 (stereo partly shown) | > 300 nM |
| O=C1CCC(c2c(F)cc(N3CC(NC(=O)Nc4cccc(OC(F)F)c4)C3)cc2F)C(=O)N1 (stereo not shown) | 30 to 300 nM |
| O=C1CCC(c2c(F)cc(N3CC(OC(=O)NCC4CCC4)C3)cc2F)C(=O)N1 (stereo not shown) | 30 to 300 nM |
| O=C1CCC(c2c(F)cc(N3CC(OC(=O)N[C@H]4CCOC4)C3)cc2F)C(=O)N1 (stereo partly shown) | > 300 nM |

Form: Entry = CC(C)N1CCC(NC(=O)NC2CN(c3cc(F)c(C4CCC(=O)NC4=O)c(F)c3)C2)C1 (stereo not shown) | System = GSPT1 (Homo sapiens, UniProt P15170+Q96SW2) | DC50 = ____
> 300 nM

Next record, please: O=C1CCC(c2c(F)cc(N3CC(OC(=O)N[C@H]4CCCOC4)C3)cc2F)C(=O)N1 (stereo partly shown)
> 300 nM

Please give the result for O=C1CCC(c2c(F)cc(N3CC(OC(=O)NCC4COC4)C3)cc2F)C(=O)N1 (stereo not shown) too.
> 300 nM

Same lookup for O=C1CCC(c2c(F)cc(N3CC(OC(=O)N4CCCCC4)C3)cc2F)C(=O)N1 (stereo not shown) , please.
> 300 nM

Try this compound next: O=C1CCC(c2c(F)cc(N3CC(OC(=O)Nc4cc(OC(F)(F)F)ccc4F)C3)cc2F)C(=O)N1 (stereo not shown)
≤ 30 nM

Item: CC1(c2ccc(NC(=O)OC3CN(c4cc(F)c(C5CCC(=O)NC5=O)c(F)c4)C3)cn2)CC1 (stereo not shown)
≤ 30 nM

And the next one, O=C1CCC(c2c(F)cc(N3CC(OC(=O)NCC(F)(F)F)C3)cc2F)C(=O)N1 (stereo not shown) ?
> 300 nM

Check O=C1CCC(c2c(F)cc(N3CC(OC(=O)N[C@@H]4CCOC4)C3)cc2F)C(=O)N1 (stereo partly shown) too.
> 300 nM

Field entry: COC(=O)C12CC(NC(=O)OC3CN(c4cc(F)c(C5CCC(=O)NC5=O)c(F)c4)C3)(C1)C2 (stereo not shown)
30 to 300 nM

Input O=C1CCC(c2c(F)cc(N3CC(OC(=O)Nc4cccc(OC(F)F)c4)C3)cc2F)C(=O)N1 (stereo not shown)
≤ 30 nM

Would you mind doing CC1(c2ccc(NC(=O)NC3CN(c4cc(F)c(C5CCC(=O)NC5=O)c(F)c4)C3)cc2)CC1 (stereo not shown) as well?
≤ 30 nM

###

System under test: CRBN-DDB1 (Homo sapiens)
Sequence (Q96SW2 whole entry): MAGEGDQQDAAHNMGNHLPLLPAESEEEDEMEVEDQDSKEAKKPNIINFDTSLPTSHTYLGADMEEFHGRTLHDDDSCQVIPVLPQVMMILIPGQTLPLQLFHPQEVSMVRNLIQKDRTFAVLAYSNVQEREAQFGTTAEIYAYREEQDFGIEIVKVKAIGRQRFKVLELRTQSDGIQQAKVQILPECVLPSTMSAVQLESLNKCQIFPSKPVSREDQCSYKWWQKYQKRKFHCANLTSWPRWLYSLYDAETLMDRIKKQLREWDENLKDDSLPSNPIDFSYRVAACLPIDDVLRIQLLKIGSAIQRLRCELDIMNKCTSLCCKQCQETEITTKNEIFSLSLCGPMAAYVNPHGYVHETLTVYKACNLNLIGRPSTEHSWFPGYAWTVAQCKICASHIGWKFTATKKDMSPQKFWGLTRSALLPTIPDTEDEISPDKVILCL
Sequence (Q16531 whole entry partner): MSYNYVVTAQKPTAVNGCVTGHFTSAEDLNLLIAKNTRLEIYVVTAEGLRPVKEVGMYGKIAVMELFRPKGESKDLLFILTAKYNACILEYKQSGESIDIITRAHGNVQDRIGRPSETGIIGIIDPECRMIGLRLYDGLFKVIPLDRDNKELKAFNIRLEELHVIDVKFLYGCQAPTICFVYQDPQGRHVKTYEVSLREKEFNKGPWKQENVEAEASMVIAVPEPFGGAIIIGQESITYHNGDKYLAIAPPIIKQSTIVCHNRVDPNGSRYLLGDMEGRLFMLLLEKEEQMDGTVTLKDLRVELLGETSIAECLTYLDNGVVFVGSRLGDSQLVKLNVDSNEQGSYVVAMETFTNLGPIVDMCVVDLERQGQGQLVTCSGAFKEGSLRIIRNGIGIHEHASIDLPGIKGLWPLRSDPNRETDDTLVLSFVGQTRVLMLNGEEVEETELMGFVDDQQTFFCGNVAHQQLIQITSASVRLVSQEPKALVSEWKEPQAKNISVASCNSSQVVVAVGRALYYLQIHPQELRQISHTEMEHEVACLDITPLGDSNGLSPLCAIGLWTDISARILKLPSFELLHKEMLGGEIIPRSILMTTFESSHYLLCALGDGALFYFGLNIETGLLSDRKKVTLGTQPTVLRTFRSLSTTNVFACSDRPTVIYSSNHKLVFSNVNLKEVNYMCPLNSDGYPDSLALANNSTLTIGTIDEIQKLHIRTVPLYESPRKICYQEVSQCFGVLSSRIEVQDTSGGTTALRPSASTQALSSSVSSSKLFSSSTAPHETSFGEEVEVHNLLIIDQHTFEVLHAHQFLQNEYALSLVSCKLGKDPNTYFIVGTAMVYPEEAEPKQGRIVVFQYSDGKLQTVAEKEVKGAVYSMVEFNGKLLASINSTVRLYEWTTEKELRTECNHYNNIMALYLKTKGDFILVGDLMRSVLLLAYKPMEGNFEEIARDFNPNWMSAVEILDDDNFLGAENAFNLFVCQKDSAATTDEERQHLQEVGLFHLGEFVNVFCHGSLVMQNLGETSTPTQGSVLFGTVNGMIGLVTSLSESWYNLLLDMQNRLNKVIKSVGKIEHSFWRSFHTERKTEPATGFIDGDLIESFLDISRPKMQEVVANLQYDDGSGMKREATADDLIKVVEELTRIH
pIC50: −log10 of the molar value.
Listing of recorded pIC50 by entry.

| Compound | System under test | pIC50 |
| --- | --- | --- |
| O=C1CCC(c2c(F)cc(N3CC(OC(=O)Nc4cnc(-c5ccccc5)nc4)C3)cc2F)C(=O)N1 (stereo not shown) [Compound 51] | CRBN-DDB1 (Homo sapiens) | 6.00 to 7.00 |
| Cc1ccc(NC(=O)NC2CN(c3cc(F)c(C4CCC(=O)NC4=O)c(F)c3)C2)cc1OC(F)F (stereo not shown) [Compound 21] | CRBN-DDB1 (Homo sapiens) | 6.00 to 7.00 |
| Cc1c(Cl)cc(NC(=O)NC2CN(c3cc(F)c(C4CCC(=O)NC4=O)c(F)c3)C2)cc1CN1CC2CC1CO2 (stereo not shown) [Compound 9] | CRBN-DDB1 (Homo sapiens) | ≥ 7.00 |

Next item in the queue.
What pIC50 value was documented for this compound, O=C1CCC(c2c(F)cc(N3CC(OC(=O)N4CCCC4)C3)cc2F)C(=O)N1 (stereo not shown) [Compound 144] ?
6.00 to 7.00

###

System under test: CRBN-DDB1 (Homo sapiens)
pIC50: −log10 of the molar value.
Property name: pIC50

Worked cases, answers included:
| Compound | pIC50 |
| --- | --- |
| Cc1c(Cl)cc(NC(=O)NC2CN(c3cc(F)c(C4CCC(=O)NC4=O)c(F)c3)C2)cc1CN1CCOCC1 (stereo not shown) | ≥ 7.00 |
| O=C1CCC(c2c(F)cc(N3CC(OC(=O)Nc4cc(F)cc(Cl)c4)C3)cc2F)C(=O)N1 (stereo not shown) | 6.00 to 7.00 |

Which pIC50 is listed for C[C@@H]1CCCN1c1ccc(NC(=O)OC2CN(c3cc(F)c(C4CCC(=O)NC4=O)c(F)c3)C2)cn1 (stereo partly shown) ?
≥ 7.00

// same read-out, input: Cc1ccc(NC(=O)OC2CN(c3ccc(C4CCC(=O)NC4=O)c(C#N)c3)C2)cc1Cl (stereo not shown)
< 6.00

Try this compound next: Cc1cc(NC(=O)OC2CN(c3cc(F)c(C4CCC(=O)NC4=O)c(F)c3)C2)cc(C)c1C#N (stereo not shown)
6.00 to 7.00

Entry COc1cc(C)c(Cl)cc1NC(=O)NC1CN(c2ccc(C3CCC(=O)NC3=O)cc2)C1 (stereo not shown) please
< 6.00

Then this compound: O=C1CCC(c2c(F)cc(N3CC(NC(=O)Nc4cc(F)cc(OC(F)F)c4)C3)cc2F)C(=O)N1 (stereo not shown)
6.00 to 7.00

Origin of values: patent US20240308976A1
